target: Fatty Acid Synthase Keto-reductase Domain (FASN KR) (Homo sapiens, UniProt P49327); test: Fatty Acid Synthase keto-reductase domain (FASN KR) inhibition, NADPH oxidation at 340 nm
Sequence (P49327 whole entry, the tested form may be a part): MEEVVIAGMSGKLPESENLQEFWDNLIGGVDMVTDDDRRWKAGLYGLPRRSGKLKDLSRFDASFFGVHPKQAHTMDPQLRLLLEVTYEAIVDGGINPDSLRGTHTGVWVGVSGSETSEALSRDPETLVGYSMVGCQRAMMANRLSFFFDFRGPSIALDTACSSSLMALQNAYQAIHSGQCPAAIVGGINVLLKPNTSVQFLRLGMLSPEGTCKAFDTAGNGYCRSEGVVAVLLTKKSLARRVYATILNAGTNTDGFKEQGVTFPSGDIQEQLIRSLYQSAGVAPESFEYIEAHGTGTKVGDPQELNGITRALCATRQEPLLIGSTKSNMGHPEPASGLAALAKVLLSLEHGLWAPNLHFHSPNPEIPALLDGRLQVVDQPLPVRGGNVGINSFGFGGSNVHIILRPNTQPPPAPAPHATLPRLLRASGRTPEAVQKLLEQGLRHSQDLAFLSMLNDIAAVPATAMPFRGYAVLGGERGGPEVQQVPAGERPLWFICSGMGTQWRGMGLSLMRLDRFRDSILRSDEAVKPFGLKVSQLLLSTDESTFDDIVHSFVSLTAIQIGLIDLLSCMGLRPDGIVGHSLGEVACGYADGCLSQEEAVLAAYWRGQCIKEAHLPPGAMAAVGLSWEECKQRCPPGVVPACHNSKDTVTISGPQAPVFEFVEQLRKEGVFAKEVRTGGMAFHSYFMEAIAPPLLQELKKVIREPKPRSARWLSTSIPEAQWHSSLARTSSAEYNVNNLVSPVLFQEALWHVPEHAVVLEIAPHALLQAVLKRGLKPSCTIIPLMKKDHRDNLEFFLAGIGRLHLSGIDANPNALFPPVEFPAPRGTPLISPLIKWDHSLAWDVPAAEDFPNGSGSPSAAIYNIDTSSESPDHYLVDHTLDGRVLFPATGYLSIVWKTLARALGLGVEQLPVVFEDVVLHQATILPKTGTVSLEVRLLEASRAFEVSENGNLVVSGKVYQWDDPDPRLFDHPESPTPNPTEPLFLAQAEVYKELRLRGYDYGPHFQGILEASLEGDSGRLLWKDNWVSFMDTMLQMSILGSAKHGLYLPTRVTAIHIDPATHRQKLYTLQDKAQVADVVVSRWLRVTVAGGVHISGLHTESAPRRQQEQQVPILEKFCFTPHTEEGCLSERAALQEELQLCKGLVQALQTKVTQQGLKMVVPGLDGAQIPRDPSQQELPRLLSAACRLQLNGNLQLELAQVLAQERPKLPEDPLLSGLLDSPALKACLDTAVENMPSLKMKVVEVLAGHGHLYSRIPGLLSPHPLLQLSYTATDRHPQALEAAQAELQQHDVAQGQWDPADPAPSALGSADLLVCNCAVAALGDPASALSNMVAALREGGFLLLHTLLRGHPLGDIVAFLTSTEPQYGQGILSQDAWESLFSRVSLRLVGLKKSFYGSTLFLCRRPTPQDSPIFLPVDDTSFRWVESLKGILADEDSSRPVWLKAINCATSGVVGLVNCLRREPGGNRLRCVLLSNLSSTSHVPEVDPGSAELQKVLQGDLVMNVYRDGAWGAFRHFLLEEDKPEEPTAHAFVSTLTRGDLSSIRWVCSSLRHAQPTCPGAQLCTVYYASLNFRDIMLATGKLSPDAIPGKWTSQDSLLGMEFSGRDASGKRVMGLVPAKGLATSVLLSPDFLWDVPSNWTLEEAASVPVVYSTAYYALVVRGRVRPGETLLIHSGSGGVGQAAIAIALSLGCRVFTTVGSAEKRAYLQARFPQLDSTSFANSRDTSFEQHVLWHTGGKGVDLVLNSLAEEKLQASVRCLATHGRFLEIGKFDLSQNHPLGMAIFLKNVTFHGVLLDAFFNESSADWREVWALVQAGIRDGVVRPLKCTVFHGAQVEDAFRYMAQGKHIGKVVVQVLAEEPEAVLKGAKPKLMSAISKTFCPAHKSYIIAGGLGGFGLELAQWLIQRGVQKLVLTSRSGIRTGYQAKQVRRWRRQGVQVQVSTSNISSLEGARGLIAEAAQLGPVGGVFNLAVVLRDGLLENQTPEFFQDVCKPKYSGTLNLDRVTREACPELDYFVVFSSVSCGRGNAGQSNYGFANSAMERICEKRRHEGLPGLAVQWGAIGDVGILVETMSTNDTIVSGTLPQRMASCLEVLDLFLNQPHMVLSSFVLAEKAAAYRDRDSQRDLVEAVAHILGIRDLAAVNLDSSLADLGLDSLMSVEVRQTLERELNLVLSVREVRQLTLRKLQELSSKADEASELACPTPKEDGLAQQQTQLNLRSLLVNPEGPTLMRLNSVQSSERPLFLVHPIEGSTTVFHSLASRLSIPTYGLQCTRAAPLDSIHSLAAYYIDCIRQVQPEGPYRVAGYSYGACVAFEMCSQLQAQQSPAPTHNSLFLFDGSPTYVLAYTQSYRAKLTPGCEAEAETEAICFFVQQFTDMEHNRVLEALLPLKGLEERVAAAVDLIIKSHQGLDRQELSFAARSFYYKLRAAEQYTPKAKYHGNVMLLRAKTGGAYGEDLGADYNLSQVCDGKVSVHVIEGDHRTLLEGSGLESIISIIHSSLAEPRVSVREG
METRIC: pIC50
Remember, pIC50 is on a log scale: it is -log10 of the molar concentration.

Take a look at these entries with their results.
> print(dat)
                            compound.smiles  metric  reported
1  O=C(C1CC1)N1CC(CN2C(=O)C3(CC3)N=C2c2ccc(-c3ccc4cccnc4c3F)cc2)C1   pIC50      6.60
2  Cn1nc(N)c2ccc(-c3ccc(C4=NC5(CC5)C(=O)N4C[C@@H]4CCN(C(=O)C5CC5)C4)cc3)cc21   pIC50      6.76
3  O=C(C1CC1)N1CC(CN2C(=O)C3(CCN(CCO)CC3)N=C2c2ccc(-c3ccc4[nH]ccc4c3)cc2)C1   pIC50      6.00

QUERY: Returns the measured pIC50 for the input compound. Input: O=C(N1CC[C@@H](CN2C(=O)C3(CCCC3)N=C2c2ccc(-c3ccc4occc4c3)cc2)C1)C1(O)CC1
RESULT: 7.22

QUERY: Looking for the measured pIC50 of NC(=O)c1cccc(-c2ccc(C3=NC4(CC4)C(=O)N3C[C@@H]3CCN(C(=O)C4CC4)C3)cc2)c1 , can you help?
RESULT: 6.18

QUERY: Requested field: pIC50. Item: Cc1cc(-c2ccc3cc(C)c(Cl)nc3c2)ccc1C1=NC2(CC2)C(=O)N1CC1CN(C(=O)C2(C)CC2)C1
RESULT: 6.23

QUERY: Look up pIC50 for this compound: O=C(C1CC1)N1CC[C@@H](CN2C(=O)C3(CC3)N=C2c2ccc(-c3ccc4cnc(Cl)cc4c3)cc2)C1
RESULT: 5.87

QUERY: Any idea what its pIC50 is? The compound is C=CC(=O)N1CCC2(CC1)N=C(c1ccc(-c3ccc4ccoc4c3)cc1)N(C[C@@H]1CCN(C(=O)C3CC3)C1)C2=O
RESULT: 6.27

QUERY: What value of pIC50 has been reported for the following compound? Cc1cc(-c2ccc3[nH]ccc3c2)ccc1C1=NC2(CCCC2)C(=O)N1C[C@@H]1CCN(C(=O)C2CC2)C1
RESULT: 7.19

QUERY: What measured pIC50 goes with Cc1cc(-c2ccc3cc[nH]c3c2)ccc1C1=NC2(CC2)C(=O)N1C[C@@H]1CCN(C(=O)C2CC2)C1 ?
RESULT: 7.51

QUERY: Reported pIC50 for O=C(C1CC1)N1CC(CN2C(=O)C3(CC3)N=C2c2ccc(-c3nc4ccc(Cl)cc4o3)cc2F)C1 : what is it?
RESULT: 6.43

QUERY: I would be grateful if you could share the reported pIC50 for O=C(C1CC1)N1CC(CN2C(=O)C3(CC3)N=C2c2ccc(-c3ccc4ccccc4c3)cc2F)C1 .
RESULT: 7.23

QUERY: Report pIC50 for Cc1cc(-c2ccc3sccc3c2)ccc1C1=NC2(CC2)C(=O)N1C[C@@H]1CCN(C(=O)C2CC2)C1 please.
RESULT: 7.35

QUERY: Can you share its pIC50? I mean this compound: O=C(C1CC1)N1CC[C@@H](CN2C(=O)C3(CC3)N=C2c2ccc(-c3ccc4sccc4c3)s2)C1
RESULT: 6.19

QUERY: Endpoint output: pIC50 of O=C(C1CC1)N1CC(CN2C(=O)C3(CC3)N=C2c2ccc(-c3ccc4cc[nH]c4c3)cc2)C1 . Value?
RESULT: 7.23

QUERY: Fill in the blank: the reported pIC50 of COCCN1CCC2(CC1)N=C(c1ccc(-c3ccc4occc4c3)cc1)N(C[C@@H]1CCN(C(=O)C3CC3)C1)C2=O is ____.
RESULT: 6.22

QUERY: Fill blank: measured pIC50 of the compound O=C(C1CC1)N1CC[C@@H](CN2C(=O)C3(CC3)N=C2c2ccc(-c3n[nH]c4ccccc34)cc2F)C1 is ____.
RESULT: 6.81

QUERY: Please give the measured pIC50 for this compound: Cc1cc(-c2ccc3c(cnn3C)c2)ccc1C1=NC2(CC2)C(=O)N1CC1CN(C(=O)CC2CC2)C1
RESULT: 6.32

Source of measurements: patent US10077261B2
